Biological target: T1, ActRIIB-Fc homodimer (UniProt Q13705 19-137)
T1 construct: extracellular domain; also called ActRIIB homodimer
T1 sequence (looked up): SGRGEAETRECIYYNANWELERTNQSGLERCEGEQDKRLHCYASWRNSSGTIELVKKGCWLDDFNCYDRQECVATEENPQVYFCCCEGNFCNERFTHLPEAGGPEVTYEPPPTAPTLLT
Test: Biacore SPR
Decision: Kd beneath 0.02 nM gives True; Kd meeting or exceeding 0.02 nM gives False.

Completed entries (count: 3):
BMP10 (ligand, UniProt O95393 317-424, looked up) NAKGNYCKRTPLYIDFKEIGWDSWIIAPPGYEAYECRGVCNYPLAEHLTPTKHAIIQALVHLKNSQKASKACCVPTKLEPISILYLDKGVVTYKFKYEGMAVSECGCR : True
GDF11 (ligand, UniProt O95390 299-407, looked up, also called BMP11) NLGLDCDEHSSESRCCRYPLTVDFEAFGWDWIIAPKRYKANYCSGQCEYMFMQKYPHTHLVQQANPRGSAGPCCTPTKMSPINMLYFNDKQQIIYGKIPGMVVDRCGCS : True
GDF3 (ligand, UniProt Q9NR23 251-364, looked up) AAIPVPKLSCKNLCHRHQLFINFRDLGWHKWIIAPKGFMANYCHGECPFSLTISLNSSNYAFMQALMHAVDPEIPQAVCIPTKLSPISMLYQDNNDNVILRHYEDMVVDECGCG : False

Identify whether the binder activin A (ligand, UniProt P08476 311-426, looked up) GLECDGKVNICCKKQFFVSFKDIGWNDWIIAPSGYHANYCEGECPSHIAGTSGSSLSFHSTVINHYRMRGHSPFANLKSCCVPTKLRPMSMLYYDDGQNIIKKDIQNMIVEECGCS records Kd below 0.02 nM.
True

Request: BMP9 (ligand, UniProt Q9UK05 320-429, looked up, also called GDF2) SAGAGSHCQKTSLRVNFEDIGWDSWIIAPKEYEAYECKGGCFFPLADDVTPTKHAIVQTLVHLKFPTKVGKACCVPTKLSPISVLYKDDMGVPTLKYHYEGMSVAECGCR
False
